- condition description: buffer; pH 7.4; 200.0 µM
readout label: solubility kinetic

| compound | value observed |
| --- | --- |
| N#CCc1c(C#N)c(N)nc(N2CCN(C=O)CC2)c1C#N | > 44.3 µg/mL |
| Cc1nc(SCC(=O)N2CCN(c3ccccn3)CC2)c(C#N)c(C)c1C | 41.8 µg/mL |

Can you give me solubility kinetic for all of these, one by one?
1. Cn1nccc1C(=O)OCC(=O)Nc1cccc(Cl)c1
2. CC(=O)Nc1ccc(S(=O)(=O)NCCc2c[nH]c3ccc(C)cc23)cc1
3. Cc1nn(C)c(C)c1NC(=O)/C(C#N)=C\N(C)C
4. Cc1cccc(NC(=O)CCCn2c(=S)[nH]c3ccccc3c2=O)c1
5. Cc1cc(C)n(CC(=O)Nc2ccc3c(c2)OCO3)c(=O)c1C#N

A)
1. > 44.1 µg/mL
2. 33.8 µg/mL
3. > 37.1 µg/mL
4. 0.3 µg/mL
5. 8.4 µg/mL

Can you give me solubility kinetic for all of these, one by one?
1. Cc1ccc(C2(C)NC(=O)N(CC(=O)N3CC(=O)Nc4ccccc43)C2=O)cc1 (stereo not drawn)
2. CCOP(=O)(OCC)C1NC(=O)N(c2ccccc2)C1=O (stereo not drawn)
3. COc1ccc(N2CC(C(=O)NC3CCCCC3)CC2=O)cc1 (stereo not drawn)
4. CC1(C)CC(NC(=O)c2c(N)no[n+]2[O-])CC(C)(C)N1

A)
1: 0.4 µg/mL; 2: > 46.8 µg/mL; 3: 25.3 µg/mL; 4: > 42.5 µg/mL

Can you give me solubility kinetic for all of these, one by one?
1. COc1cccc(C(=O)Nc2cccc(NC(=O)c3cccs3)c2)c1
2. CC(=O)O.NCC(c1ccco1)c1c[nH]c2ccccc12 (stereo not drawn)
3. COc1cccc(NC(=O)Nc2cc(C)on2)c1
4. CCOC(=O)COc1cccc2c(=O)n(CC(N)=O)ccc12

A)
13.5 µg/mL
21.5 µg/mL
> 37.1 µg/mL
24.4 µg/mL

Where do the numbers come from? From PubChem BioAssay AID1996.
